Cited source: ChEMBL document CHEMBL3351972

- target-system: Histone deacetylase
- assay-overview: Inhibition of HDAC in human HeLa cells nuclear extracts incubated for 30 mins by fluorescent assay
- Assay type: cell-free
metric: IC50 (nM)

Example results:
{"columns": ["input-smiles", "target-system", "units-symbol", "value-observed"],
 "data": [
  ["CCn1c(C)c(CCNS(=O)(=O)c2ccc(/C=C/C(=O)NO)cc2)c2ccccc21", "Histone deacetylase", "nM", 3.4],
  ["Cn1cc(CCNS(=O)(=O)c2ccc(/C=C/C(=O)NO)cc2)c2ccccc21", "Histone deacetylase", "nM", 5.7],
  ["Cc1[nH]c2ccccc2c1CCNS(=O)(=O)c1cccc(/C=C/C(=O)NO)c1", "Histone deacetylase", "nM", 7.9]
]}

1 = CCN(CC)CCn1c(C)c(CCNS(=O)(=O)c2ccc(/C=C/C(=O)NO)cc2)c2ccccc21
2 = Cc1[nH]c2ccccc2c1CCN(C)S(=O)(=O)c1ccc(/C=C/C(=O)NO)cc1
3 = Cc1[nH]c2ccccc2c1CCNS(=O)(=O)c1ccc(C(=O)NO)cc1
4 = Cc1c(CCNS(=O)(=O)c2ccc(/C=C/C(=O)NO)cc2)c2ccccc2n1C
I would appreciate it if you could sort these 4 compounds by IC50, starting from the smallest number. Form field (ranking): labels in requested order.
4, 1, 2, 3

A = Cc1[nH]c2ccccc2c1CCN(C(C)C)S(=O)(=O)c1ccc(/C=C/C(=O)NO)cc1
B = CCN(CCc1c(C)[nH]c2ccccc12)S(=O)(=O)c1ccc(/C=C/C(=O)NO)cc1
Out of A and B , name the one with the higher IC50. Pick one; state its label.
B

A = O=C(/C=C/c1ccc(S(=O)(=O)NCCc2c[nH]c3ccccc23)cc1)NO
B = O=C(/C=C/c1ccc(S(=O)(=O)N2CCc3c([nH]c4ccccc34)C2)cc1)NO
C = Cc1[nH]c2ccccc2c1CCNS(=O)(=O)c1ccc(/C=C/C(=O)NO)cc1
// sort entries: IC50, high to low Ranked list of labels, please, in the requested order.
B, A, C
(B: 43.9 nM, A: 6.6 nM, C: 2.8 nM)

====

- assay-overview: Retention time of the compound by HPLC method
- Type: physicochemical
metric: Retention_time (min)

a = Cc1[nH]c2ccccc2c1CCN(C)S(=O)(=O)c1ccc(/C=C/C(=O)NO)cc1
b = CCN(CC)CCn1c(C)c(CCNS(=O)(=O)c2ccc(/C=C/C(=O)NO)cc2)c2ccccc21
Given the listed records, identify the one among a and b with higher Retention_time. Which one? Tell me its label.
a

====

- Tested on: RAW264.7
- assay-overview: Anti-inflammatory activity in LPS-stimulated mouse RAW264.7 cells assessed as suppression of IL6 production pre-incubated for 1 hr before LPS stimulation for 24 hrs by ELISA method
- Type: functional, cell-based
metric: IC50 (nM)

Recorded IC50, per entry:
{"columns": ["input-smiles", "target-system", "IC50 (nM)"],
 "data": [
  ["O=C(/C=C/c1cccc(S(=O)(=O)Nc2ccccc2)c1)NO", "RAW264.7", 0.059],
  ["CCN(CC)CCn1c(C)c(CCNS(=O)(=O)c2ccc(/C=C/C(=O)NO)cc2)c2ccccc21", "RAW264.7", 0.14],
  ["CCn1c(C)c(CCNS(=O)(=O)c2ccc(/C=C/C(=O)NO)cc2)c2ccccc21", "RAW264.7", 21]
]}

A = Cc1[nH]c2ccccc2c1CCN(C(C)C)S(=O)(=O)c1ccc(/C=C/C(=O)NO)cc1
B = O=C(/C=C/c1ccc(S(=O)(=O)N2CCc3c([nH]c4ccccc34)C2)cc1)NO
Larger number for IC50: A , or B ? Pick one; state its label.
B
(B: 31 nM, A: 4.5 nM)
